Tested on: SW620 cells (KRAS G12V)
PROTOCOL_DESCRIPTION: Cell-based pERK HTRF assay in SW620 cell (Biological Example 4)
SETUP_CONDITIONS: Homo sapiens, SW-620, SW620 (KRAS G12V) cells, pERK HTRF; class symbols
pIC50: −log10 of the molar value.
Parameter: pIC50. Scope: all listed entries.

INSERT INTO assay_data (compound, data_value) VALUES
  ('CCN(c1nc(OC[C@@]23CCCN2C[C@H](F)C3)nc2c(F)c(-c3ccc(F)c4sc(N)c(C#N)c34)c(C(F)(F)F)cc12)[C@H]1C[C@H](C)N(C(=O)OC)C1 (atropisomer, axis not shown)', '> 7.00');

Kindly review the next compound as well.
[in] What value of measured pIC50 is listed for CCN(c1nc(OC[C@@]23CCCN2C[C@H](F)C3)nc2c(F)c(-c3ccc(F)c4sc(N)c(C#N)c34)c(C(F)(F)F)cc12)[C@H]1CC(=O)N(CCF)C1 (atropisomer, axis not shown) ?
[out] > 7.00

----------
EXPERIMENTAL_TARGET: Avi-KRAS G12R (1-169) GppNHp/RAF1 RBD-3xFLAG (52-151) (Homo sapiens, UniProt P01116, G12R)
Construct: Avi-KRAS G12R (1-169)
Sequence (P01116 1-169 isoform P01116-2 G12R): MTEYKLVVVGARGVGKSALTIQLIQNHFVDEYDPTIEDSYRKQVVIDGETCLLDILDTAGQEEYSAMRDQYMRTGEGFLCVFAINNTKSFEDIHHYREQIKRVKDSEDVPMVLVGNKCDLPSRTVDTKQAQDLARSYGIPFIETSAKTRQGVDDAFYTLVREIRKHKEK
PROTOCOL_DESCRIPTION: Raf1-KRAS G12R-GppNHP disruption HTRF assay (Biological Example 1)
Assay type: binding
SETUP_CONDITIONS: KRAS G12R, GppNHp-loaded; Table 11
Parameter: IC50. Scope: all listed entries.

Observe how each entry below is paired with its result.
INSERT INTO measurements (compound, data_value) VALUES
  ('N#Cc1c(N)sc2c(F)ccc(-c3c(C(F)(F)F)cc4c(N5CCN(C(=O)CO)CC5)nc(OC[C@@]56CCCN5C[C@H](F)C6)nc4c3F)c12 [Compound 101]', '100 to 1000 nM'),
  ('CN(c1nc(OC[C@@]23CCCN2C[C@H](F)C3)nc2c(F)c(-c3ccc(F)c4sc(N)nc34)c(C(F)(F)F)cc12)[C@H]1C[C@@H](O)C1 (atropisomer, axis not shown) [Compound 8]', '1000 to 10000 nM'),
  ('CS(=O)(=O)C1CN(c2nc(OC[C@@]34CCCN3C[C@H](F)C4)nc3c(F)c(-c4ccc(F)c5sc(N)c(C#N)c45)c(C(F)(F)F)cc23)C1 [Compound 223]', '1000 to 10000 nM'),
  ('CN(c1nc(OCC23CCCN2CCC3)nc2c(F)c(-c3ccc(F)c4sc(N)nc34)c(C(F)(F)F)cc12)C1CC(O)C12CCCC2 (single isomer, unassigned) [Compound 10]', '> 10000 nM'),
  ('N#Cc1c(N)sc2c(F)ccc(-c3c(C(F)(F)F)cc4c(N5CC[C@H](CO)C5)nc(OC[C@@]56CCCN5C[C@H](F)C6)nc4c3F)c12 [Compound 123]', '100 to 1000 nM'),
  ('CN(c1nc(OC[C@@]23CCCN2C[C@H](F)C3)nc2c(F)c(-c3ccc(F)c4sc(N)c(C#N)c34)c(C(F)(F)F)cc12)C1CC(F)C1 (some centres unmarked) [Compound 161]', '100 to 1000 nM');

[in] What value of measured IC50 is listed for CN(c1nc(OC[C@@]23CCCN2C[C@H](F)C3)nc2c(F)c(-c3ccc(F)c4sc(N)c(C#N)c34)ccc12)[C@H]1C[C@@H](O)C1 [Compound 28] ?
[out] 1000 to 10000 nM

[in] What value of measured IC50 is listed for N#Cc1c(N)sc2c(F)ccc(-c3c(C(F)(F)F)cc4c(N5CCN(CCO)C(=O)C5)nc(OC[C@@]56CCCN5C[C@H](F)C6)nc4c3F)c12 [Compound 121] ?
[out] 100 to 1000 nM

[in] What value of measured IC50 is listed for CC(=O)N1C[C@@H](N(C)c2nc(OC[C@@]34CCCN3C[C@H](F)C4)nc3c(F)c(-c4ccc(F)c5sc(N)c(C#N)c45)c(C(F)(F)F)cc23)C[C@H]1C [Compound 277] ?
[out] 100 to 1000 nM

[in] What value of measured IC50 is listed for C[C@]1(O)CCN(c2nc(OC[C@@]34CCCN3C[C@H](F)C4)nc3c(F)c(-c4ccc(F)c5sc(N)c(C#N)c45)c(C(F)(F)F)cc23)C1 [Compound 242] ?
[out] 100 to 1000 nM

[in] What value of measured IC50 is listed for C[C@H](CO)N(C)c1nc(OC[C@@]23CCCN2C[C@H](F)C3)nc2c(F)c(-c3ccc(F)c4sc(N)c(C#N)c34)c(C(F)(F)F)cc12 [Compound 76] ?
[out] 100 to 1000 nM

----------
EXPERIMENTAL_TARGET: Avi-KRAS G12R (1-169) GppNHp/RAF1 RBD-3xFLAG (52-151) (Homo sapiens, UniProt P01116, G12R)
Construct: Avi-KRAS G12R (1-169)
PROTOCOL_DESCRIPTION: Raf1-KRAS G12R-GppNHP disruption HTRF assay (Biological Example 1)
Format: binding
SETUP_CONDITIONS: KRAS G12R, GppNHp-loaded; Table 11
REPORTED_ENDPOINT: IC50

Observe how each entry below is paired with its result.
INSERT INTO results (compound, data_value) VALUES
  ('CCN(CCO)c1nc(OC[C@@H]2CCCN2C)nc2c(F)c(-c3ccc(F)c4sc(N)c(C#N)c34)c(C(F)(F)F)cc12 [Compound 179]', '100 to 1000 nM'),
  ('N#Cc1c(N)sc2c(F)ccc(-c3c(C(F)(F)F)cc4c(N(CCO)CCO)nc(OC[C@@]56CCCN5C[C@H](F)C6)nc4c3F)c12 [Compound 174]', '< 100 nM');

[in] What value of measured IC50 is listed for CO[C@H]1C[C@@H](N(C)c2nc(OC[C@@]34CCCN3C[C@H](F)C4)nc3c(F)c(-c4ccc(F)c5sc(N)c(C#N)c45)c(C(F)(F)F)cc23)C1 [Compound 27] ?
[out] 100 to 1000 nM

----------
EXPERIMENTAL_TARGET: Avi-KRAS G12V (1-169) GppNHp/RAF1 RBD-3xFLAG (52-151) (Homo sapiens, UniProt P01116, G12V)
Construct: Avi-KRAS G12V (1-169)
Sequence (P01116 1-169 isoform P01116-2 G12V): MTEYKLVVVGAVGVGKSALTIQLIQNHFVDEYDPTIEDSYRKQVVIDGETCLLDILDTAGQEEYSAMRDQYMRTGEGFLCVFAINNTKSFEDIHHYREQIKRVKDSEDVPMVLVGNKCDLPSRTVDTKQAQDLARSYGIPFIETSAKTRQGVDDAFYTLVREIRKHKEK
PROTOCOL_DESCRIPTION: Raf1-KRAS G12V-GppNHP disruption HTRF assay (Biological Example 1)
Assay type: binding
SETUP_CONDITIONS: KRAS G12V, GppNHp-loaded; class symbols
pIC50: −log10 of the molar value.
REPORTED_ENDPOINT: pIC50

INSERT INTO results (compound, data_value) VALUES
  ('C=C(F)C(=O)N1CC[C@H](N(CC)c2nc(OC[C@@]34CCCN3C[C@H](F)C4)nc3c(F)c(-c4ccc(F)c5sc(N)c(C#N)c45)c(C(F)(F)F)cc23)C1 (atropisomer, axis not shown)', '> 7.00');

[in] What value of pIC50 on Avi-KRAS G12V (1-169) GppNHp/RAF1 RBD-3xFLAG (52-151) (Homo sapiens, UniProt P01116, G12V) does CCN(c1nc(OC[C@@]23CCCN2C[C@H](F)C3)nc2c(F)c(-c3ccc(F)c4sc(N)c(C#N)c34)c(C(F)(F)F)cc12)[C@H]1CCN(C(=O)c2ncco2)C1 (atropisomer, axis not shown) have?
[out] > 7.00

[in] What value of pIC50 on Avi-KRAS G12V (1-169) GppNHp/RAF1 RBD-3xFLAG (52-151) (Homo sapiens, UniProt P01116, G12V) does CCN(c1nc(OC[C@@]23CCCN2C[C@H](F)C3)nc2c(F)c(-c3ccc(F)c4sc(N)c(C#N)c34)c(C(F)(F)F)cc12)[C@H]1CCN(C(=O)N2C[C@@H]3C[C@H]2CO3)C1 (atropisomer, axis not shown) have?
[out] > 7.00

----------
EXPERIMENTAL_TARGET: Avi-KRAS WT (1-169) GppNHp/RAF1 RBD-3xFLAG (52-151) (Homo sapiens, UniProt P01116)
Construct: Avi-KRAS WT (1-169)
Sequence (P01116 1-169 isoform P01116-2): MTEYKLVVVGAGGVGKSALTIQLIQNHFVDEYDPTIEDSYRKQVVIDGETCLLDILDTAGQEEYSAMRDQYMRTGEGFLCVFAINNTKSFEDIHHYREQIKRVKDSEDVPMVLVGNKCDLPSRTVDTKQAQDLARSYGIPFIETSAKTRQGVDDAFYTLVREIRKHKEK
PROTOCOL_DESCRIPTION: Raf1-KRAS WT-GppNHP disruption HTRF assay (Biological Example 1)
Format: binding
SETUP_CONDITIONS: KRAS WT, GppNHp-loaded; Table 11
REPORTED_ENDPOINT: IC50

[in] What value of IC50 on Avi-KRAS WT (1-169) GppNHp/RAF1 RBD-3xFLAG (52-151) (Homo sapiens, UniProt P01116) does `N#Cc1c(N)sc2c(F)ccc(-c3c(C(F)(F)F)cc4c(N5CC[C@@H]5CF)nc(OC[C@@]56CCCN5C[C@H](F)C6)nc4c3F)c12` have?
[out] 100 to 1000 nM

[in] What value of IC50 on Avi-KRAS WT (1-169) GppNHp/RAF1 RBD-3xFLAG (52-151) (Homo sapiens, UniProt P01116) does CCN(C)c1nc(OC[C@@]23CCCN2C[C@H](F)C3)nc2c(F)c(-c3ccc(F)c4sc(N)c(C#N)c34)c(C(F)(F)F)cc12 (single isomer, unassigned) [Compound 196] have?
[out] < 100 nM

[in] What value of IC50 on Avi-KRAS WT (1-169) GppNHp/RAF1 RBD-3xFLAG (52-151) (Homo sapiens, UniProt P01116) does N#Cc1c(N)sc2c(F)ccc(-c3c(C(F)(F)F)cc4c(N5CC6CCC(C5)C6O)nc(OC[C@@]56CCCN5C[C@H](F)C6)nc4c3F)c12 (stereo partly drawn) have?
[out] 100 to 1000 nM

These data points were gathered from patent US20260042764A1.
